target: human TLR8 (Homo sapiens); test: TLR8 inhibition reporter assay (HEK-Blue SEAP reporter); conditions: HEK-Blue cells overexpressing human TLR8; R848 15.9 μM; 22 hour incubation
pIC50: −log10 of the molar value.
parameter: pIC50

COc1ccc(-c2[nH]c3ccc(N4CC5(CCCNC5)C4)cc3c2C(C)C)cc1OC [Example 136] = 7.46

A. Cc1cc(-c2[nH]c3ccc(N4CCC(N(C)CCN)C4=O)cc3c2C(C)C)ccn1 (stereo not shown) [Example 2]
B. CNC1(CC#N)CCN(c2ccc3[nH]c(-c4ccc(OC)c(OC)c4)c(C(C)C)c3c2)CC1 [Example 112]
Between A and B , which one shows the larger pIC50 value? Return value: the label identifying the chosen record.
B
(B: 8.03, A: 7.55)

I. CC(C)c1c(-c2ccnc3[nH]ncc23)[nH]c2ccc(N3CCN(C4CCN(C(C)C)CC4)CC3)cc12 [Example 168]
II. CCc1c(-c2ccnc(C)c2)[nH]c2ccc(N3CCN(C4CCN(CC)CC4)CC3)cc12 [Example 142]
From the items above, decide which of I and II has the lower pIC50 reading. Return value: the label identifying the chosen record.
I
(I: 4.32, II: 5.10)

----------
Target: human TLR8 (Homo sapiens, UniProt Q9NR97)
Sequence (Q9NR97 27-1041): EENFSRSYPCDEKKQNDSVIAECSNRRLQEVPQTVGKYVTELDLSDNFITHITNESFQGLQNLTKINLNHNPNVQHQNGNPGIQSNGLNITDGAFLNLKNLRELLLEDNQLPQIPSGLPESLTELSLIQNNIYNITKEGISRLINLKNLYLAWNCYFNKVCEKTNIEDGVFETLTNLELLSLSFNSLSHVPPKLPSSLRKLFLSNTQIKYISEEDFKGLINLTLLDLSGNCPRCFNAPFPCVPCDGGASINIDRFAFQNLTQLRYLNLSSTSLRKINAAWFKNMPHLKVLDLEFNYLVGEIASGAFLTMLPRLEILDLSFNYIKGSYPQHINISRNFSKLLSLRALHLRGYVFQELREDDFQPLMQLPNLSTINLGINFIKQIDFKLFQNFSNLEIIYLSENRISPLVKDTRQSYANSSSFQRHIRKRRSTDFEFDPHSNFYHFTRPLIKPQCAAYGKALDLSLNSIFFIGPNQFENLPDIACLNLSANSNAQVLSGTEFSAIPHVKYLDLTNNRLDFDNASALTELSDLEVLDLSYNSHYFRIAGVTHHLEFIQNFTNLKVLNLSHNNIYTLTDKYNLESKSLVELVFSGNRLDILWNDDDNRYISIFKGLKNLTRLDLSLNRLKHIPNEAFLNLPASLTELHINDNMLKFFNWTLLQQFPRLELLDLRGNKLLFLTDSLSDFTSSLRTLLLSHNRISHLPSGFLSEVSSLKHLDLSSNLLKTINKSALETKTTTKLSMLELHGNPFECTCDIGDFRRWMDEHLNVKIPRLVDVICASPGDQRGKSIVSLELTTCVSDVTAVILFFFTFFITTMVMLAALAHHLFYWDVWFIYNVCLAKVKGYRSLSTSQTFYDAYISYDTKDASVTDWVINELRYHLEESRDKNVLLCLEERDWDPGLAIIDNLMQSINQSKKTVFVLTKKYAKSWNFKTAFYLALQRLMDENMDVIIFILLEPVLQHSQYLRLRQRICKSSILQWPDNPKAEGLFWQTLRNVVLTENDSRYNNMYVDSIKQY
Assay: TLR8 inhibition reporter assay (HEK-Blue SEAP reporter)
Conditions: HEK-Blue cells overexpressing human TLR8; R848 15.9 μM; 22 hour incubation
parameter: IC50 (nM)

Look over these answered cases.
COc1ccc(-c2[nH]c3ccc(N4CCC(N5CCN(CC(C)C)CC5)CC4)cc3c2C(C)C)cc1OC = 92
COc1ccc(-c2[nH]c3ccc(N4CCC(N)(CC#N)CC4)cc3c2C(C)C)cc1OC = 211
Cc1c(-c2[nH]c3ccc(N4CCC(N(C)C)CC4)cc3c2C(C)C)cn(C)c(=O)c1Cl = 1.8

P. COc1ccc(-c2[nH]c3ccc(NC(=O)[C@@H](N)CC(N)=O)cc3c2C(C)C)cc1OC
Q. CCc1c(-c2cc(OC)nc(OC)c2)[nH]c2ccc(N3CCNCC3)cc12
From the items above, decide which of P and Q has the lower IC50 reading. Return value: the label identifying the chosen record.
Q

A. COc1ccc(-c2[nH]c3ccc(N4CCC(NC5CC(C)(C)N(C)C(C)(C)C5)CC4)cc3c2C(C)C)cc1OC
B. COc1ccc(-c2[nH]c3ccc(NC(=O)CCCN)cc3c2C(C)C)cc1OC
From the items above, decide which of A and B has the lower IC50 reading. Return value: the label identifying the chosen record.
A

----------
target: human TLR8 (Homo sapiens); assay: TLR8 inhibition reporter assay (HEK-Blue SEAP reporter); settings: HEK-Blue cells overexpressing human TLR8; R848 15.9 μM; 22 hour incubation
parameter: IC50 (nM)

CNCCN1CCN(c2ccc3[nH]c(-c4ccc(OC)c(OC)c4)c(C(C)C)c3c2)CC1 [Example 127] = 15
CCNCCOc1ccc(Nc2ccc3[nH]c(-c4ccc(OC)c(OC)c4)c(C(C)C)c3c2)cc1 [Example 105] = 17
COc1ccc(-c2[nH]c3ccc(N4CCC(N5CCN(C(C)(C)C)CC5)CC4)cc3c2C(C)C)cc1OC [Example 90] = 19
CCN1CCCN(C2CCN(c3ccc4[nH]c(-c5ccc(OC)c(OC)c5)c(C(C)C)c4c3)CC2)CC1 [Example 84] = 4.7
COc1ccc(-c2[nH]c3ccc(N4CCC(N(C)C)CC4)cc3c2C(C)C)cc1OC [Example 108] = 10

P. COc1ccc(-c2[nH]c3ccc(N4CCC(N(C)CCCN(C)C)CC4)cc3c2C(C)C)cc1OC [Example 81]
Q. COc1ccc(-c2[nH]c3ccc(N4CCN(C5CCN(C)CC5)CC4)cc3c2C)cc1OC [Example 149]
From the items above, decide which of P and Q has the lower IC50 reading. Return value: the label identifying the chosen record.
P
(P: 10 nM, Q: 62 nM)

P. Cc1c(-c2ccnc3[nH]ccc23)[nH]c2ccc(N3CCN(C4CCN(C)CC4)CC3)cc12 [Example 141]
Q. CCc1c(-c2ccnc3c2ccn3C)[nH]c2ccc(N3CCN(C4CCN(C(C)C)CC4)CC3)cc12 [Example 165]
Between P and Q , which one shows the larger IC50 value? Return value: the label identifying the chosen record.
Q
(Q: 9400 nM, P: 1720 nM)

I. COc1ccc(-c2[nH]c3ccc(N4CCC(N(C)C)C4=O)cc3c2C(C)C)cc1OC (stereo not shown) [Example 4]
II. COCCN1CCN(C2CCN(c3ccc4[nH]c(-c5ccc(OC)c(OC)c5)c(C(C)C)c4c3)CC2)CC1 [Example 92]
From the items above, decide which of I and II has the lower IC50 reading. Return value: the label identifying the chosen record.
II
(II: 12 nM, I: 81 nM)

P. CCc1c(-c2ccnc(OC)c2)[nH]c2ccc(N3CCN(C4CCN(CC)CC4)CC3)cc12 [Example 148]
Q. COc1ccc(-c2[nH]c3ccc(N4CCC(C5CCN(CCC(F)(F)F)CC5)CC4)cc3c2C(C)C)cc1OC [Example 97]
From the items above, decide which of P and Q has the lower IC50 reading. Return value: the label identifying the chosen record.
P

1. Cc1cc2[nH]c(-c3ccnc4[nH]ncc34)c(C(C)C)c2cc1N1CCNCC1 [Example 130]
2. Cc1cc(-c2[nH]c3ccc(N4CCNC4=O)cc3c2C(C)C)ccn1 [Example 8]
3. COc1ccc(-c2[nH]c3ccc(N4CCC(N(C)C)C4)cc3c2C(C)C)cc1OC (stereo not shown) [Example 120]
Ascending by IC50, please. Give your ranking as a list of the labels in the requested order.
1, 3, 2
(1: 7.8 nM, 3: 17 nM, 2: 25 nM)

----------
Target: human TLR8 (Homo sapiens)
Sequence (Q9NR97 27-1041): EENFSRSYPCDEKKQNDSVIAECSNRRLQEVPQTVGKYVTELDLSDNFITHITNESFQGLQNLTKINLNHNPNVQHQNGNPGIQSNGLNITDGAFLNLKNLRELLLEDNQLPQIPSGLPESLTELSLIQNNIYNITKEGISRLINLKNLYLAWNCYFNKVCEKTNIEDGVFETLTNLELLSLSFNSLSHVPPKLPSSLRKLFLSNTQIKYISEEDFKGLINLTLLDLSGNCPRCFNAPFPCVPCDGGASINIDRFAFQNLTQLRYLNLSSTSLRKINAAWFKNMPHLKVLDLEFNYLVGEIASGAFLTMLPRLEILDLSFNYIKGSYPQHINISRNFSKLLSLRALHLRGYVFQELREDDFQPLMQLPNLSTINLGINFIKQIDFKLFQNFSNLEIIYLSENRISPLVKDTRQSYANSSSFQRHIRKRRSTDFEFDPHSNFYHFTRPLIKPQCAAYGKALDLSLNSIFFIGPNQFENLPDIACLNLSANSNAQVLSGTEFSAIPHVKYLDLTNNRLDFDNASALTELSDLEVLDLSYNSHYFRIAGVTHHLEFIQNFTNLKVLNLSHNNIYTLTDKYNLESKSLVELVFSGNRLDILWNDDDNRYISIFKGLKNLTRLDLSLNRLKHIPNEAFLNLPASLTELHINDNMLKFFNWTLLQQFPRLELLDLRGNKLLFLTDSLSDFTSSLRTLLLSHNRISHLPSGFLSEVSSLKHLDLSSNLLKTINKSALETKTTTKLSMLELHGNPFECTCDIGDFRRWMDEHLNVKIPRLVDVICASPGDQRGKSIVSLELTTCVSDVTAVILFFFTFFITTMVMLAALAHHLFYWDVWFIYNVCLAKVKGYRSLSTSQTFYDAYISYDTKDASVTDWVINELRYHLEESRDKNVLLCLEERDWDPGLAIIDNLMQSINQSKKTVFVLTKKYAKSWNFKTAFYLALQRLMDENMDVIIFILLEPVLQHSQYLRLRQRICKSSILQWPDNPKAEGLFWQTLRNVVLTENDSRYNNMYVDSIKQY
Assay: TLR8 inhibition reporter assay (HEK-Blue SEAP reporter)
Settings: HEK-Blue cells overexpressing human TLR8; R848 15.9 μM; 22 hour incubation
pIC50: −log10 of the molar value.
parameter: pIC50

COc1ccc(-c2[nH]c3ccc(NC(=O)[C@@H](N)CCC(=O)O)cc3c2C(C)C)cc1OC = 6.67

P. CCc1c(-c2ccc(OC)c(OC)c2)[nH]c2ccc(N3CCC(OC4CCN(C(C)C)CC4)CC3)cc12
Q. COc1ccc(-c2[nH]c3ccc(NC4CCC(N5CCN(c6ccncc6)CC5)CC4)cc3c2C(C)C)cc1OC (stereo not shown) [Example 60]
Between P and Q , which one shows the larger pIC50 value? Return value: the label identifying the chosen record.
P
(P: 7.18, Q: 6.95)

P. COc1ccc(-c2[nH]c3ccc(N4CCC(CCN5CCCC5)CC4)cc3c2C(C)C)cc1OC
Q. COc1ccc(-c2[nH]c3ccc(N4CCC(NC5CCN(C)CC5)CC4)cc3c2C(C)C)cc1OC
From the items above, decide which of P and Q has the lower pIC50 reading. Return value: the label identifying the chosen record.
P
